System: DHODH KO HT-1080 cells
Method description: Cell viability / cell death (ferroptosis) in DHODH KO HT-1080 cells
Assay type: cell-based, human
Run parameters: DHODH KO; pretreatment 10 μM, 24 hours
Measurement name: protection against GPX4 inhibition (RSL3 or ML162)-induced ferroptosis

Compound: CC1(C)CCCC(C)(C)N1[O] [TEMPO, 2,2,6,6-tetramethyl-1-piperidinyloxy]
Result: rescued
--
Compound: Clc1cccc(CN=C2Nc3ccccc3NC23CCNCC3)c1 [liproxstatin-1]
Result: rescued

Source of measurements: patent US20240148757A1
